These measurements were taken from ChEMBL document CHEMBL1137710.

- System: A498
- Experiment Summary: Growth inhibition of human A498 cells after 48 hrs by sulforhodamine B assay
- Assay type: functional
- Applied Conditions: A498, 48 h, read-out: pLC50 (the source's name) (converted)
Property Name: CC50

Q: Report CC50 for COc1ccc(Sc2nc3cc(N)cc(N)c3nc2-c2ccccc2)cc1 tested on A498.
Result: 60.3 µM

Q: Do the same for COc1cc(CNc2nc3cc(N)cc(N)c3nc2-c2ccccc2)cc(OC)c1 please
Result: > 100 µM

Q: Try this compound next: COc1ccc(CNc2nc3cc(N)cc(N)c3nc2-c2ccccc2)cc1
Result: > 100 µM

Q: Next compound up: Nc1cc(N)c2nc(-c3ccccc3)c(Sc3ccc(F)cc3)nc2c1
Result: > 100 µM

Q: Also check Nc1cc(N)c2nc(-c3ccccc3)c(NCc3ccc(F)cc3)nc2c1
Result: 57.5 µM

Q: Here is the next compound: COc1ccc(Oc2nc3cc(N)cc(N)c3nc2-c2ccccc2)cc1
Result: > 100 µM

====

log10(GI50): recorded values
- Test system: MDA-MB-231
- Experiment Summary: Growth inhibition of human MDA-MB-231 cells after 48 hrs by sulforhodamine B assay
- Assay type: functional
- Applied Conditions: MDA-MB-231, 48 h
Please note: log10 values; quantity GI50; unit µM.

Given Smiles | Test Target | Property Name | Measured Number
COc1cc(CNc2nc3cc(N)cc(N)c3nc2-c2ccccc2)cc(OC)c1OC | MDA-MB-231 | log10(GI50) | 0.86

Q: Reported log10(GI50), compound COc1ccc(CNc2nc3cc(N)cc(N)c3nc2-c2ccccc2)cc1 : ____
Result: 0.46

Q: What do we get for COc1ccc(Oc2nc3cc(N)cc(N)c3nc2-c2ccccc2)cc1 ?
Result: 1.31

Q: Moving on to Nc1cc(N)c2nc(-c3ccccc3)c(NCc3ccc(Cl)c(Cl)c3)nc2c1
Result: 0.20

Q: Another compound to check: Nc1cc(N)c2nc(-c3ccccc3)c(Oc3ccc(F)cc3)nc2c1
Result: 0.59

Q: Now this one: Nc1cc(N)c2nc(-c3ccccc3)c(Oc3ccc(Cl)c(Cl)c3)nc2c1
Result: 1.01

Q: Then what about the compound COc1ccc(CNc2nc3cc(N)cc(N)c3nc2-c2ccccc2)cc1OC ?
Result: 1.05

====

- Tested on: UACC-257
- Experiment Summary: Growth inhibition of human UACC257 cells after 48 hrs by sulforhodamine B assay
- Assay type: functional
- Applied Conditions: UACC-257, 48 h, read-out: pLC50 (the source's name) (converted)
Property Name: CC50 (µM)
Return type: number; implicit unit µM.

Given Smiles | Test Target | Measured Number
Nc1cc(N)c2nc(-c3ccccc3)c(Oc3ccc(F)cc3)nc2c1 | UACC-257 | 77.6

Consider the additional compound presented here.
Q: Looking for the measured CC50 of COc1ccc(CNc2nc3cc(N)cc(N)c3nc2-c2ccccc2)cc1OC , can you help?
Result: 55

====

- System: UACC-62
- Experiment Summary: Growth inhibition of human UACC62 cells after 48 hrs by sulforhodamine B assay
- Format: functional
- Applied Conditions: UACC-62, 48 h, read-out: pTGI (converted)
Overview of recorded TGI for various compounds
Form entry: value (µM) — number only.

Given Smiles | Test Target | TGI, µM
Nc1cc(N)c2nc(-c3ccccc3)c(NCc3ccc(F)cc3)nc2c1 | UACC-62 | 29.5

Then there is this compound:
Q: Look at this compound and give its reported TGI. Nc1cc(N)c2nc(-c3ccccc3)c(NCc3ccc(Cl)c(Cl)c3)nc2c1
Result: 30.9
